# credit: ChEMBL document CHEMBL4414632

Can you tell me selectivity ratio for the items I'm about to list?
Test: Therapeutic index, ratio of CC50 for dog MDCK cells to IC50 for Influenza A virus (A/Taiwan/1/1986(H1N1))
Format: toxicity
Conditions: read-out: Ratio CC50/IC50

Task item: Return reported selectivity ratio; argument: N#Cc1cc(F)c2[nH]cc(-c3ncc(F)c(N[C@H]4C5CCC(CC5)[C@@H]4C(=O)O)n3)c2c1
Reply: 97

Task item: Return reported selectivity ratio; argument: Cc1cc(F)c2[nH]cc(-c3ncc(F)c(N[C@H]4C5CCC(CC5)[C@@H]4C(=O)O)n3)c2c1
Reply: 75

Task item: Return reported selectivity ratio; argument: O=C(O)[C@H]1C2CCC(CC2)[C@@H]1Nc1nc(-c2c[nH]c3c(F)cc(Cl)cc23)ncc1F
Reply: 83

Task item: Return reported selectivity ratio; argument: NC(=O)c1nc(F)cnc1O
Reply: > 6

###

Can you tell me selectivity ratio for the items I'm about to list?
Experiment: Therapeutic index, ratio of CC50 for human A549 cells to IC50 for Influenza A virus (A/Puerto Rico/8/34(H1N1))
Format: toxicity
Conditions: read-out: Ratio CC50/IC50

Task item: Return reported selectivity ratio; argument: CCOC(=O)C1=C[C@@H](OC(CC)CC)[C@H](NC(C)=O)[C@@H](N)C1 [OSELTAMIVIR]
Reply: > 4130

Task item: Return reported selectivity ratio; argument: N#Cc1cc(F)c2[nH]cc(-c3ncc(F)c(N[C@H]4C5CCC(CC5)[C@@H]4C(=O)O)n3)c2c1
Reply: > 612

Task item: Return reported selectivity ratio; argument: Cc1cc(F)c2[nH]cc(-c3ncc(F)c(N[C@H]4C5CCC(CC5)[C@@H]4C(=O)O)n3)c2c1
Reply: 1490

Task item: Return reported selectivity ratio; argument: O=C(O)[C@H]1C2CCC(CC2)[C@@H]1Nc1nc(-c2c[nH]c3c(F)cc(Cl)cc23)ncc1F
Reply: > 485
